# credit: patent US9643951B2

# assay notes: Evaluation of cytotoxicity using cultured human hepatocytes (intracellular ATP)
# Assay type: cell-based
# conditions used: read-out: IC50 of cytotoxicity (concentration at which 50% of the luminescence is suppressed)
Checkbox rule: IC50 at 24 h lower than 20 µM = 1 (yes); IC50 at 24 h not lower than 20 µM = 0 (no).

| compound | group label |
| --- | --- |
| Cc1cc(C)cc(-c2cnc3cc(Cl)c(-c4cnn(C)c4)cc3c2OCC[C@H]2CCCCN2)c1 [formula (M), reference compound] | 1 (yes) |
| CCNC1CCN(c2c(-c3ccc(C4(C#N)CC4)cc3)cncc2-c2cc(Cl)cc(Cl)c2)CC1 | 0 (no) |

## Input Consider the compound CCNC1CCN(c2c(/C=C/c3cccc(C#N)c3)cncc2-c2cc(Cl)cc(Cl)c2)CC1 . Is its IC50 at 24 h strictly less than 20 µM?
## Output 1 (yes)

## Input Consider the compound NC1CCN(c2c(-c3ccc(C(F)(F)F)cc3)cncc2-c2cc(Cl)cc(Cl)c2)CC1 . Is its IC50 at 24 h strictly less than 20 µM?
## Output 1 (yes)

## Input Consider the compound Fc1cccc(/C=C/c2cncc(-c3cc(Cl)cc(Cl)c3)c2N2CC[C@@H]3NCCO[C@H]3C2)c1 . Is its IC50 at 24 h strictly less than 20 µM?
## Output 1 (yes)

## Input Consider the compound N#CC1(c2ccc(-c3cncc(-c4cc(Cl)cc(Cl)c4)c3N3CC[C@@H]4NCCO[C@H]4C3)cc2)CC1 . Is its IC50 at 24 h strictly less than 20 µM?
## Output 1 (yes)
